meta.source: ChEMBL document CHEMBL4808195

Tested on: MDA-MB-231
experimentSummary: Anticancer activity against human MDA-MB-231 cells assessed as inhibition of cell growth at 10 uM measured by SRB method
Format: functional
reportedMetric: inhibition at 10 µM (%)
Numeric only. Scale: %

The examples below pair each entry with its known result.
molecule	unitText	inhibition at 10 µM
CN(C)c1ccc(C2CC(c3ccc(-n4ccnc4)cc3)=NN2C(=O)c2ccc(C(F)(F)F)cc2)cc1 (stereo unspecified)	%	17.9
CN(C)c1ccc(C2CC(c3ccc(-n4cncn4)cc3)=NN2C(=O)Cc2ccccc2)cc1 (stereo unspecified)	%	2.9
CN(C)c1ccc(C2CC(c3ccc(-n4ccnc4)cc3)=NN2C(=O)c2ccc(F)cc2)cc1 (stereo unspecified)	%	9.4
CN1CCN(c2ccc(C3=NN(S(=O)(=O)c4ccc(F)cc4)C(c4ccc(N(C)C)cc4)C3)cc2)CC1 (stereo unspecified)	%	15.7

q: Lab note: need inhibition at 10 µM with MDA-MB-231 for entry CN(C)c1ccc(C2CC(c3ccc(-n4cncn4)cc3)=NN2S(=O)(=O)c2ccc(OC(F)(F)F)cc2)cc1 (stereo unspecified) , please look it up.
a: 18.5

q: What measured inhibition at 10 µM is associated with CN1CCN(c2ccc(C3=NN(C(=O)c4ccc(C(F)(F)F)cc4)C(c4ccc(N(C)C)cc4)C3)cc2)CC1 (stereo unspecified) on MDA-MB-231?
a: 55.4
